Origin of values: PubChem BioAssay (EPA / NIEHS)

read-out: Interferon-gamma inducible Protein 10 (IP10), CXCL10 (gene 3627); experiment: BSK_BE3C_IP10: BioMAP Diversity Plus: BE3C Assay for Interferon-gamma inducible Protein 10 (IP10) Biomarker Activity (AID 2283034); conditions: primary human bronchial epithelial cells; actives raise or lower the signal
Active and inactive are the calls of the source. How the source made its calls: active means hit-call score of the fitted dose curve at least 0.9, where 1 is the maximum; inactive means score below 0.9.
API: response.call in active, inactive

Req: Check the results log: what was the call for `CCCCCCCCCC=O` ?
Resp: active

Req: Check the results log: what was the call for `C=C(C)C(=O)O[C@H]1C[C@@H]2CC[C@@]1(C)C2(C)C` ?
Resp: active

Req: Check the results log: what was the call for `N#Cc1ccc(CC(=NNC(=O)Nc2ccc(OC(F)(F)F)cc2)c2cccc(C(F)(F)F)c2)cc1` ?
Resp: inactive

Req: Check the results log: what was the call for `C=C[Si](OCC)(OCC)OCC` ?
Resp: inactive

Req: Check the results log: what was the call for `CC(C)c1ccc(C(C)C)cc1` ?
Resp: active
